# aspartate transaminase levels listing for each entry below
test system: BALB/c mice; assay: Tolerability in BALB/c mice: plasma transaminases ALT and AST (Example 7); conditions: 25 mg/kg twice a week, plasma, Week 4
In the oligonucleotide strings, read from the 5' end, every base follows the letter of its sugar. An asterisk marks phosphorothioate; unmarked linkages are phosphodiester. Other units and linkages are bracketed, terminal groups are in braces. A string of capitals states the bases alone. e = 2'-O-(2-methoxyethyl) (MOE); [5mC] = 5-methylcytosine; d = 2'-deoxy (DNA)

[
  {
    "substance": "413982 (antisense GCCTCCGGCTCCCAGCGGCA; sugars from the 5' end e2 d13 e5, backbone and methylation of C not given here) [compound 413982]",
    "aspartate transaminase levels, IU/L": 161
  },
  {
    "substance": "414035 (antisense GTCCTTAAATACAGCCCCCA; sugars from the 5' end e2 d13 e5, backbone and methylation of C not given here) [compound 414035]",
    "aspartate transaminase levels, IU/L": 116
  },
  {
    "substance": "414040 (antisense e[5mC]*eT*d[5mC]*dT*d[5mC]*dT*d[5mC]*d[5mC]*dA*dT*d[5mC]*dT*dT*dT*dA*eA*eT*eG*eG*eG) [compound 414040]",
    "aspartate transaminase levels, IU/L": 1405
  },
  {
    "substance": "414036 (antisense GTGTCCTTAAATACAGCCCC; sugars from the 5' end e2 d13 e5, backbone and methylation of C not given here) [compound 414036]",
    "aspartate transaminase levels, IU/L": 148
  }
]

----------
tested on: human TGF-beta1 mRNA; assay: Dose-dependent confirmation of antisense inhibition of human TGF-beta1 in HuVEC cells, electroporation (Example 6); format: cell-based; details: 1.25 nM oligonucleotide
In the oligonucleotide strings, read from the 5' end, every base follows the letter of its sugar. An asterisk marks phosphorothioate; unmarked linkages are phosphodiester. Other units and linkages are bracketed, terminal groups are in braces. A string of capitals states the bases alone. e = 2'-O-(2-methoxyethyl) (MOE); [5mC] = 5-methylcytosine; d = 2'-deoxy (DNA)
# percent inhibition of TGF-beta1 mRNA relative to untreated control cells listing for each entry below
measured_parameter: percent inhibition of TGF-beta1 mRNA relative to untreated control cells (%)

[
  {
    "substance": "414040 (antisense e[5mC]*eT*d[5mC]*dT*d[5mC]*dT*d[5mC]*d[5mC]*dA*dT*d[5mC]*dT*dT*dT*dA*eA*eT*eG*eG*eG) [compound 414040]",
    "value": 91
  },
  {
    "substance": "414035 (antisense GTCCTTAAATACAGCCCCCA; sugars from the 5' end e2 d13 e5, backbone and methylation of C not given here) [compound 414035]",
    "value": 77
  },
  {
    "substance": "413982 (antisense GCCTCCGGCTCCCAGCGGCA; sugars from the 5' end e2 d13 e5, backbone and methylation of C not given here) [compound 413982]",
    "value": 79
  },
  {
    "substance": "414036 (antisense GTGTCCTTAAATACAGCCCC; sugars from the 5' end e2 d13 e5, backbone and methylation of C not given here) [compound 414036]",
    "value": 74
  }
]

----------
# % inhibition listing for each entry below
Test system: human TGF-beta1 mRNA
Assay: Antisense inhibition of human TGF-beta1 mRNA in HuVEC cells, single 10 nM dose, Lipofectamine 2000 (Example 2)
Assay type: cell-based
Conditions: 10 nM oligonucleotide, HuVEC, relative to untreated control cells; gapmers targeted to SEQ ID NO: 1
Description: Antisense oligonucleotides targeted to a TGF-beta1 nucleic acid were tested for their effects on TGF-beta1 mRNA in vitro. […] After a recovery period of approximately 24 hours, RNA was isolated from the cells and TGF-beta1 mRNA levels were measured by quantitative real-time PCR. TGF-beta1 mRNA levels were adjusted according to total RNA content, as measured by RIBOGREEN®. […]
In the oligonucleotide strings, read from the 5' end, every base follows the letter of its sugar. An asterisk marks phosphorothioate; unmarked linkages are phosphodiester. Other units and linkages are bracketed, terminal groups are in braces. A string of capitals states the bases alone. e = 2'-O-(2-methoxyethyl) (MOE); [5mC] = 5-methylcytosine; d = 2'-deoxy (DNA)

[
  {
    "substance": "414005 (antisense e[5mC]*e[5mC]*dA*dG*dA*dA*dG*dG*dT*dG*dG*dG*dT*dG*dG*eT*e[5mC]*eT*eT*eG) [compound 414005]",
    "subject_of_test": "human TGF-beta1 mRNA",
    "unit_spec": "%",
    "% inhibition": 77
  },
  {
    "substance": "413983 (antisense eG*e[5mC]*dG*d[5mC]*d[5mC]*dT*d[5mC]*d[5mC]*dG*dG*d[5mC]*dT*d[5mC]*d[5mC]*d[5mC]*eA*eG*e[5mC]*eG*eG) [compound 413983]",
    "subject_of_test": "human TGF-beta1 mRNA",
    "unit_spec": "%",
    "% inhibition": 78
  },
  {
    "substance": "413989 (antisense eG*eG*d[5mC]*dA*dA*dA*dG*dG*dG*dA*dG*dG*d[5mC]*dG*dG*eT*e[5mC]*eT*eG*eG) [compound 413989]",
    "subject_of_test": "human TGF-beta1 mRNA",
    "unit_spec": "%",
    "% inhibition": 41
  },
  {
    "substance": "414007 (antisense eG*eG*dT*dA*d[5mC]*d[5mC]*dA*dG*dA*dA*dG*dG*dT*dG*dG*eG*eT*eG*eG*eT) [compound 414007]",
    "subject_of_test": "human TGF-beta1 mRNA",
    "unit_spec": "%",
    "% inhibition": 94
  },
  {
    "substance": "413982 (antisense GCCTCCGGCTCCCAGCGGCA; sugars from the 5' end e2 d13 e5, backbone and methylation of C not given here) [compound 413982]",
    "subject_of_test": "human TGF-beta1 mRNA",
    "unit_spec": "%",
    "% inhibition": 88
  },
  {
    "substance": "414016 (antisense eA*eA*d[5mC]*d[5mC]*dT*dA*dG*dA*dT*dG*dG*dG*d[5mC]*dG*d[5mC]*eG*eA*eT*e[5mC]*eT) [compound 414016]",
    "subject_of_test": "human TGF-beta1 mRNA",
    "unit_spec": "%",
    "% inhibition": 78
  }
]

----------
# percent inhibition of TGF-beta1 listing for each entry below
system: human TGF-beta1 mRNA; assay: Dose-dependent confirmation of antisense inhibition of human TGF-beta1 in HuVEC cells after large-scale synthesis, Lipofectamine 2000, 0.007-15 nM (Example 5); type: cell-based; details: 0.007 nM, Lipofectamine 2000
In the oligonucleotide strings, read from the 5' end, every base follows the letter of its sugar. An asterisk marks phosphorothioate; unmarked linkages are phosphodiester. Other units and linkages are bracketed, terminal groups are in braces. A string of capitals states the bases alone. e = 2'-O-(2-methoxyethyl) (MOE); [5mC] = 5-methylcytosine; d = 2'-deoxy (DNA)

[
  {
    "substance": "414035 (antisense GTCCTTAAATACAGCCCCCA; sugars from the 5' end e2 d13 e5, backbone and methylation of C not given here) [compound 414035]",
    "percent inhibition of TGF-beta1 (%)": 9
  },
  {
    "substance": "413982 (antisense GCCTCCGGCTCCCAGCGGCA; sugars from the 5' end e2 d13 e5, backbone and methylation of C not given here) [compound 413982]",
    "percent inhibition of TGF-beta1 (%)": 0
  },
  {
    "substance": "414040 (antisense e[5mC]*eT*d[5mC]*dT*d[5mC]*dT*d[5mC]*d[5mC]*dA*dT*d[5mC]*dT*dT*dT*dA*eA*eT*eG*eG*eG) [compound 414040]",
    "percent inhibition of TGF-beta1 (%)": 19
  },
  {
    "substance": "414036 (antisense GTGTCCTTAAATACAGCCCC; sugars from the 5' end e2 d13 e5, backbone and methylation of C not given here) [compound 414036]",
    "percent inhibition of TGF-beta1 (%)": 5
  }
]

----------
test system: human TGF-beta1 mRNA; experiment: Dose-dependent confirmation of antisense inhibition of human TGF-beta1 in HuVEC cells after large-scale synthesis, Lipofectamine 2000, 0.007-15 nM (Example 5); type: cell-based; conditions: 1.667 nM, Lipofectamine 2000
In the oligonucleotide strings, read from the 5' end, every base follows the letter of its sugar. An asterisk marks phosphorothioate; unmarked linkages are phosphodiester. Other units and linkages are bracketed, terminal groups are in braces. A string of capitals states the bases alone. e = 2'-O-(2-methoxyethyl) (MOE); [5mC] = 5-methylcytosine; d = 2'-deoxy (DNA)
# percent inhibition of TGF-beta1 listing for each entry below

[
  {
    "substance": "414036 (antisense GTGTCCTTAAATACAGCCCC; sugars from the 5' end e2 d13 e5, backbone and methylation of C not given here) [compound 414036]",
    "percent inhibition of TGF-beta1": "84%"
  },
  {
    "substance": "414040 (antisense e[5mC]*eT*d[5mC]*dT*d[5mC]*dT*d[5mC]*d[5mC]*dA*dT*d[5mC]*dT*dT*dT*dA*eA*eT*eG*eG*eG) [compound 414040]",
    "percent inhibition of TGF-beta1": "89%"
  },
  {
    "substance": "414035 (antisense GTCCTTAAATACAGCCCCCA; sugars from the 5' end e2 d13 e5, backbone and methylation of C not given here) [compound 414035]",
    "percent inhibition of TGF-beta1": "84%"
  },
  {
    "substance": "413982 (antisense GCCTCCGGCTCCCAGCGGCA; sugars from the 5' end e2 d13 e5, backbone and methylation of C not given here) [compound 413982]",
    "percent inhibition of TGF-beta1": "79%"
  }
]

Reference source: patent US20110172296A1
